Tested on: E. coli AG100
MEASUREMENT_PROTOCOL: microbe, parasite or virus in culture
Format: cell-based
TEST_CONTEXT: Escherichia coli, AG100, read-out: MIC E. coli AG100
MEASURED_QUANTITY: MIC

Quick one: MIC of CC(C)C(=O)NC(C(=O)N[C@H]1Cc2cccc(C(=O)O)c2OB1O)c1ccc(P(=O)(O)O)cc1 (stereo partly shown) ?
> 128 mg/L

Further, for CCN1CCN(C(=O)NC(C(=O)N[C@H]2Cc3cccc(C(=O)O)c3OB2O)c2ccc(P(=O)(O)O)cc2F)C(=O)C1=O (stereo partly shown) ?
32 to 64 mg/L

Query O=C(O)c1cccc2c1OB(O)[C@@H](NC(=O)[C@H](NC(=O)c1cnc3sccn3c1=O)c1ccc(P(=O)(O)O)cc1)C2 (single isomer, unassigned) next
> 128 mg/L

What do you get for O=C(O)c1cccc2c1OB(O)[C@@H](NC(=O)C(NC(=O)C(F)(F)F)c1ccc(P(=O)(O)O)cc1)C2 (stereo partly shown) ?
> 128 mg/L
